Quick reference: EC50 of the listed items.
# Target system: PAR4 (Homo sapiens (Human))
# Sequence (Q96RI0 18-385): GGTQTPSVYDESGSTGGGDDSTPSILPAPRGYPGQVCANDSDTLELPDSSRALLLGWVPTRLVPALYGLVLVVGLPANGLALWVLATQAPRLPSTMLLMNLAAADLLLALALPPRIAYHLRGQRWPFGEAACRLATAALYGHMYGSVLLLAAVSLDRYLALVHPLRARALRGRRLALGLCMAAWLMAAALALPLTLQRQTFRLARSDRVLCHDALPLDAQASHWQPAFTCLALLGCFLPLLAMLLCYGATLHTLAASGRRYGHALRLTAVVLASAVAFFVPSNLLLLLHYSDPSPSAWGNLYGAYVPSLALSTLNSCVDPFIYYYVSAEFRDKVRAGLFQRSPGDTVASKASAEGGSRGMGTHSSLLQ
# Procedure text: FLIPR assay in PAR4-expressing HEK293 cells (PAR4 antagonist activity, calcium mobilization)
# Format: cell-based
# Experimental conditions: H-Ala-Phe(4-F)-Pro-Gly-Trp-Leu-Val-Lys-Asn-Gly-NH2-induced calcium mobilization
The response must be a number in nM with no trailing unit.

Recorded EC50, per entry:
COc1cc(OCc2nc(-c3ccnc(F)c3)sc2C)c2cc(-c3cn4nc(OC)sc4n3)oc2c1 | 0.46
C=CCN(C)C(=O)c1ccc(-c2nc(COc3cc(OC)cc4oc(-c5cn6nc(OC)sc6n5)cc34)cs2)cc1 | 2.2
COc1cc(OCc2csc(C3CCOc4ccccc43)n2)c2cc(-c3cn4nc(OC)sc4n3)oc2c1 (stereo not drawn) | 0.28
COc1cc(OCc2csc(-c3ccc(C(=O)N(C)C4COC4)cc3)n2)c2cc(-c3cn4nc(OC)sc4n3)oc2c1 | 0.99
COc1cc(OCc2csc(-c3ccno3)n2)c2cc(-c3cn4nc(OC)sc4n3)oc2c1 | 0.32

// recorded EC50 for COc1cc(OCc2csc(C3(O)CCC4(CC3)OCCO4)n2)c2cc(-c3cn4nc(OC)sc4n3)oc2c1 : 0.33

###

# Target system: PAR4 (Homo sapiens (Human))
# Procedure text: FLIPR assay in PAR4-expressing HEK293 cells (PAR4 antagonist activity, calcium mobilization)
# Format: cell-based
# Experimental conditions: H-Ala-Phe(4-F)-Pro-Gly-Trp-Leu-Val-Lys-Asn-Gly-NH2-induced calcium mobilization
Quick reference: pEC50 of the listed items.
// returns pEC50 (minus log10 of molar concentration), number only

Recorded pEC50, per entry:
COc1cc(OCc2csc(N3CCC(F)(F)CC3)n2)c2cc(-c3cn4nc(C)ccc4n3)oc2c1 [Example 235] | 9.36
COc1cc(OCc2csc(CCC(F)(F)F)n2)c2cc(-c3cn4nc(OC)sc4n3)oc2c1 [Example 58] | 9.48
COc1cc(OCc2csc(-c3ccccc3)n2)c2cc(-c3cn4nc([C@H](C)F)sc4n3)oc2c1 [Example 192] | 8.72

Now let's try a different one.
// recorded pEC50 for CNC(=O)c1ccc(-c2nc(COc3cc(F)cc4oc(-c5cn6nc(OC)sc6n5)cc34)c(C)s2)cc1 [Example 186] : 9.24

###

# Target system: PAR4 (Homo sapiens (Human))
# Procedure text: FLIPR assay in PAR4-expressing HEK293 cells (PAR4 antagonist activity, calcium mobilization)
# Format: cell-based
# Experimental conditions: H-Ala-Phe(4-F)-Pro-Gly-Trp-Leu-Val-Lys-Asn-Gly-NH2-induced calcium mobilization
# Text: The FLIPR assay is an exemplary in vitro assay for measuring the activity of the PAR4 antagonists of the present invention. In this assay, intracellular calcium mobilization is induced in PAR4 expressing cells by a PAR4 agonist and calcium mobilization is monitored. See, e.g., Example A. […]
With a cut-off of 0.7 nM, any EC50 strictly below it is called 1.0; any EC50 meeting it or above is called 0.0.

Example results:
CCc1sc(-c2ccc(C(=O)N(C)C)cc2)nc1COc1cc(OC)cc2oc(-c3cn4nc(OC)sc4n3)cc12 | 0.0
COc1cc(OCc2csc(-c3ccc(Cl)nc3)n2)c2cc(-c3cn4nc(OC)sc4n3)oc2c1 | 0.0
COCCN(C)C(=O)c1ccc(-c2nc(COc3cc(OC)cc4oc(-c5cn6nc(OC)sc6n5)cc34)cs2)cc1 | 1.0
COc1cc(OCc2nc(-c3ccc(C(=O)OC(C)(C)C)cc3)sc2C)c2cc(-c3cn4nc(OC)sc4n3)oc2c1 | 0.0
COc1cc(OCc2csc(CC(C)C)n2)c2cc(-c3cn4nc(OC)sc4n3)oc2c1 | 1.0
COc1cncc(-c2nc(COc3cc(OC)cc4oc(-c5cn6nc(OC)sc6n5)cc34)cs2)c1 | 0.0

# input for lookup
Would you kindly verify if EC50 of COc1cc(OCc2csc(N3CCN(CCO)CC3)n2)c2cc(-c3cn4nc(C)ccc4n3)oc2c1 is strictly less than 0.7 nM? 0.0
